METHOD: qHTS for Inhibitors of the Functional Ribonucleoprotein Complex (vRNP) of Lassa (LASV) Arenavirus: LASV Primary Screen - GLuc reporter signal (AID 1347082); note: nearly all actives have a fitted effect of over 60% in size
MEASUREMENT_CONTEXT: LASV minigenome vRNP, Gaussia luciferase reporter; series mostly up to 57.5 µM
Results filed as inconclusive are left out. Calls of active or inactive are those of the source. Calls come from the whole dose curve; tested in HEK293 reporter line.
MEASURED_ATTRIBUTE: outcome

{"ENTRY_SMILES": "CC(=O)O[C@@H]1CC[C@@]2(C)[C@H](C1)[C@H](OC(C)=O)C[C@@H]1[C@@H]2C[C@H]2[C@@H]3CN4C[C@H](C)CC[C@H]4[C@H](C)[C@H]3CC[C@@]12O", "OBSERVED_MEASUREMENT": "inactive"}
{"ENTRY_SMILES": "CC(/C=C/C=C(\\C)C(=O)O[C@@H]1O[C@H](CO[C@@H]2O[C@H](CO)[C@@H](O)[C@H](O)[C@H]2O)[C@@H](O)[C@H](O)[C@H]1O)=C\\C=C\\C=C(C)\\C=C\\C=C(/C)C(=O)O[C@@H]1O[C@H](CO[C@@H]2O[C@H](CO)[C@@H](O)[C@H](O)[C@H]2O)[C@@H](O)[C@H](O)[C@H]1O", "OBSERVED_MEASUREMENT": "inactive"}
